Target: his-labeled human IL-13 (immunogen A) (human) (UniProt P35225)
Assay: cell-based or functional assay
readout_type: VCAM-1 fluorescence intensity, HUVEC + IL-13 0.5 ng/mL + TNFα; antibody at 0.0002 nM
Give bare numbers.

Below are worked cases with known answers.
[[record]]
binder = "c29D9H8 (mouse-human chimeric IL-13 antibody) (antibody, V domains shown) VH: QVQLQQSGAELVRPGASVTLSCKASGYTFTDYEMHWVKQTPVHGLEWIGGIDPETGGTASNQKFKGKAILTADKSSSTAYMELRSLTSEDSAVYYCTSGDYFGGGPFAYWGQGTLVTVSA VL: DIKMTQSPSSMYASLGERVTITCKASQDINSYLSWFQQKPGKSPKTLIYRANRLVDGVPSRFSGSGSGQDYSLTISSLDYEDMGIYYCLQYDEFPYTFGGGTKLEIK"
quantitative_result = 364

[[record]]
binder = "c35E2C3 (mouse-human chimeric IL-13 antibody) (antibody, V domains shown) VH: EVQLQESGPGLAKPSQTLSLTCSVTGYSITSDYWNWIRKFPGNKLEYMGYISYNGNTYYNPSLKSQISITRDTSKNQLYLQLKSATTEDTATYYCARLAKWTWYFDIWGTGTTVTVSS VL: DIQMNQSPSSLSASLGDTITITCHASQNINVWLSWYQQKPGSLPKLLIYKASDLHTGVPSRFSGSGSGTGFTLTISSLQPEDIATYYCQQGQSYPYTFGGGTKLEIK"
quantitative_result = 408

[[record]]
binder = "c28A2E11 (mouse-human chimeric IL-13 antibody) (antibody, V domains shown) VH: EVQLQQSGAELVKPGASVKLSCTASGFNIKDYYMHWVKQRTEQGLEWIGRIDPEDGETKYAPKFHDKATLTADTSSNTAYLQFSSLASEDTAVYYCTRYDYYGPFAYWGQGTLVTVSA VL: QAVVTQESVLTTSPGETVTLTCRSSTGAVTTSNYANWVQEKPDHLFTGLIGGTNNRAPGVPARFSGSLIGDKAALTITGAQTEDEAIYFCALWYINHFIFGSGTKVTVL"
quantitative_result = 379


Pending binder:
Noted for c70F10A10 (mouse-human chimeric IL-13 antibody) (antibody, V domains shown) VH: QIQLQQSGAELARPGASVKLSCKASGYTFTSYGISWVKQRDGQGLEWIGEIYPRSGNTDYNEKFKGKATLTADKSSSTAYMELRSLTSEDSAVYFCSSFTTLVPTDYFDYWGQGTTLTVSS VL: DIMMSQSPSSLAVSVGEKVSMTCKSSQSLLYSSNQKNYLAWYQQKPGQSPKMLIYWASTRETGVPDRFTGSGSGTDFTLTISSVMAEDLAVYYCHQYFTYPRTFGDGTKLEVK : its VCAM-1 fluorescence intensity, HUVEC + IL-13 0.5 ng/mL + TNFα; antibody at 0.0002 nM reads 368
